meta.source: the supplement of paper PMC7877785

assay: self-splicing fitness, log relative to wild type (ln ratio); higher = more splicing; Tetrahymena group I intron in knt gene, E. coli kanamycin selection, DiMSum; sequences stand for … in CUCUCU…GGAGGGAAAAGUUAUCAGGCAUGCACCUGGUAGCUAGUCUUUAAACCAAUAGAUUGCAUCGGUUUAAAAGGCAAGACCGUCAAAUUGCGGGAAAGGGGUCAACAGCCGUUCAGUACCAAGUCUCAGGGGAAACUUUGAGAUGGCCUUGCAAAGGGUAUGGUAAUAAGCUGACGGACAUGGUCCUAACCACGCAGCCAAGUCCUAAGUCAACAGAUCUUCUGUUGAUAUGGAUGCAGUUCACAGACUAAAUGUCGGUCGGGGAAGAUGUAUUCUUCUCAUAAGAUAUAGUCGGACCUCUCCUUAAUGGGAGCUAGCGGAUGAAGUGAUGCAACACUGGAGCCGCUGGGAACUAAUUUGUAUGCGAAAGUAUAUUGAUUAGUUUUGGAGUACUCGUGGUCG; settings: 30 °C;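 also: selection with 25 µg/mL kanamycin versus none on LB agar overnight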
Label true when self-splicing fitness (ln) >= -3; otherwise false.

Worked set:
CUGGAGCAAUAUUACGACCA	true
AGUAAGCAAUAUUACGUUUG	false
UUGAAGCAAUAUUACGAAGU	false
CAGGAGCAAUAUUACGAGUU	false
GUCGAGCAAUAUUACGUCAU	true

Answer whether self-splicing fitness (ln) of CGCUAGCAAUAUUACGUGCC is greater than or equal to -3.
true

Answer whether self-splicing fitness (ln) of CGUCAGCAAUAUUACGUCAA is greater than or equal to -3.
true

====

experiment: self-splicing fitness, log relative to wild type (ln ratio); higher = more splicing; Tetrahymena group I intron in knt gene, E. coli kanamycin selection, DiMSum; sequences stand for … in CUCUCU…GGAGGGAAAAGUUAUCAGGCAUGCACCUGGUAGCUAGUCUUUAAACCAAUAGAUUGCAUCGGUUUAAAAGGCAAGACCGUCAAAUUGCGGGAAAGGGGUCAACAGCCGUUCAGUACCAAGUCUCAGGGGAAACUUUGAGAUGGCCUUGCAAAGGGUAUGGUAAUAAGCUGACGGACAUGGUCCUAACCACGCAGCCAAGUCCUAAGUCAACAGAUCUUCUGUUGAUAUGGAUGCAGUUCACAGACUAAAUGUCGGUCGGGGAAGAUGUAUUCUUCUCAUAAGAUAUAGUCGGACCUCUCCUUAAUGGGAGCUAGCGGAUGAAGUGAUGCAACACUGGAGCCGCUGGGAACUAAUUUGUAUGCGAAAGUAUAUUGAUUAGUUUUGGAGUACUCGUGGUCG; settings: 37 °C
Could you please classify the records by self-splicing fitness (ln) using these ranges: 1: < -2; 2: ≥ -2 and < -1; 3: ≥ -1

UAGAAGCAAUAUUACGUCUU	3
AAUUAGCAAUAUUACGAAAA	3
UAGCAGCAAUAUUACGUUUU	1
UCGCAGCAAUAUUACGUGGA	2
UGUCAGCAAUAUUACGCCCG	3

Note: place this sequence into its band. Item: UGAAAGCAAUAUUACGAGAG
2

Note: place this sequence into its band. Item: AACAAGCAAUAUUACGGCUG
3

Note: place this sequence into its band. Item: CGACAGCAAUAUUACGGAAU
1

Note: place this sequence into its band. Item: GCGAAGCAAUAUUACGGCGG
2

Note: place this sequence into its band. Item: CCUCAGCAAUAUUACGUAGA
1

Note: place this sequence into its band. Item: UCUCAGCAAUAUUACGAUGU
3

Note: place this sequence into its band. Item: UCAAAGCAAUAUUACGUACA
3

Note: place this sequence into its band. Item: UUGAAGCAAUAUUACGGUAG
3

Note: place this sequence into its band. Item: CCGCAGCAAUAUUACGUUGG
2

Note: place this sequence into its band. Item: GUGUAGCAAUAUUACGCUGU
1

Note: place this sequence into its band. Item: GGGUAGCAAUAUUACGAAUU
3

Note: place this sequence into its band. Item: CGACAGCAAUAUUACGGGCC
1

Note: place this sequence into its band. Item: UGAUAGCAAUAUUACGUUCG
3

Note: place this sequence into its band. Item: CCGCAGCAAUAUUACGCCUG
2

Note: place this sequence into its band. Item: UCCCAGCAAUAUUACGGCUG
2

Note: place this sequence into its band. Item: UACAAGCAAUAUUACGCCAA
2

====

assay: self-splicing fitness, log relative to wild type (ln ratio); higher = more splicing; Tetrahymena group I intron in knt gene, E. coli kanamycin selection, DiMSum; sequences stand for … in CUCUCU…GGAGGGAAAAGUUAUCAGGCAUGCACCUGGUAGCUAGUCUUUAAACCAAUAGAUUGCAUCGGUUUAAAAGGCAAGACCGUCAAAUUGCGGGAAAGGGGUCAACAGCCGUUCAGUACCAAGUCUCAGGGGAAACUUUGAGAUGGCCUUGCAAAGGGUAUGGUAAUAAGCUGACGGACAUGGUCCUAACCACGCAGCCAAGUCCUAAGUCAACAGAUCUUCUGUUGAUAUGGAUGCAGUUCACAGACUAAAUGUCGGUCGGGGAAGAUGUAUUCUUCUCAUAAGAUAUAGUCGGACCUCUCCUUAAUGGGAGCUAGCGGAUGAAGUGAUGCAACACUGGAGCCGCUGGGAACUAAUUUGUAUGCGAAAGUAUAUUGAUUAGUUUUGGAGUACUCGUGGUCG; details: 30 °C
Record form. Attribute: self-splicing fitness (ln). Fill in for each entry.
Numbers only.

Some solved entries appear below for comparison.
AUACAGCAAUAUUACGUCGU	-1.3
CUGCAGCAAUAUUACGAGCC	-2.9
AUUUAGCAAUAUUACGUAGU	-1.54
GGGGAGCAAUAUUACGUUCG	-2.01
AGCAAGCAAUAUUACGACUA	-0.478
CCGAAGCAAUAUUACGACAU	-3.98
GAGAAGCAAUAUUACGGUUG	-2.18

Recorded self-splicing fitness (ln) of GAGUAGCAAUAUUACGUCAC , please.
-3.28

====

experiment: self-splicing fitness, log relative to wild type (ln ratio); higher = more splicing; Tetrahymena group I intron in knt gene, E. coli kanamycin selection, DiMSum; sequences stand for … in CUCUCU…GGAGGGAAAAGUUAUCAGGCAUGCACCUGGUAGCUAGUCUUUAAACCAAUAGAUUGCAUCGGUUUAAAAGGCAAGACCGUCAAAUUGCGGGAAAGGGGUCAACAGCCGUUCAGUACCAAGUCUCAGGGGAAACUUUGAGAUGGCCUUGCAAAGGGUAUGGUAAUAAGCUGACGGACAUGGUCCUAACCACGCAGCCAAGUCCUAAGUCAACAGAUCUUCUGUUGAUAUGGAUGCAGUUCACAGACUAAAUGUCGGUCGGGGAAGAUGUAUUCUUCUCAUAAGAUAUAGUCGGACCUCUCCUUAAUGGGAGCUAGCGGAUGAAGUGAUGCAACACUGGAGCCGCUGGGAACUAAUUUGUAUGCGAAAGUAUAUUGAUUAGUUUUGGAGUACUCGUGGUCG; details: 37 °C
Endpoint name: self-splicing fitness (ln)
Give bare numbers.

Some solved entries appear below for comparison.
CAAUAGCAAUAUUACGCGGA	-2.05
GAGCAGCAAUAUUACGAACG	-0.673
GUCGAGCAAUAUUACGGAGG	-2.17

Batch: self-splicing fitness (ln) for all items listed.
1. CCCAAGCAAUAUUACGUAUG
2. GCUAAGCAAUAUUACGUCUU
3. AGUAAGCAAUAUUACGGGUU
4. GACUAGCAAUAUUACGUAAA

1: -1.47; 2: 0.136; 3: -2.68; 4: 0.0101

Batch: self-splicing fitness (ln) for all items listed.
1. CCGUAGCAAUAUUACGAUUU
2. UUGAAGCAAUAUUACGGAGU
3. UAAGAGCAAUAUUACGUUUU
4. UGGCAGCAAUAUUACGUGCG
5. AGUGAGCAAUAUUACGGCGA
6. GCUCAGCAAUAUUACGGAGA
7. UAGGAGCAAUAUUACGUGGG
8. UGCUAGCAAUAUUACGCUCC

1. -2.08
2. -1.83
3. -3.27
4. 0.163
5. -2
6. 0.284
7. -3.32
8. -0.757

Batch: self-splicing fitness (ln) for all items listed.
1. CUCAAGCAAUAUUACGUGGU
2. CUCUAGCAAUAUUACGAGGU
3. AUGGAGCAAUAUUACGCAUG
4. UACUAGCAAUAUUACGUUCC

-2.09
-3.6
-2.36
-2.33

Batch: self-splicing fitness (ln) for all items listed.
1. CUCGAGCAAUAUUACGUAUU
2. UGCAAGCAAUAUUACGUCCC
3. UCCCAGCAAUAUUACGUCCC
4. UUGUAGCAAUAUUACGCAGA

-1.96
-0.65
-0.845
-0.763

====

Record form. Attribute: self-splicing fitness (ln). Fill in for each entry.
assay: self-splicing fitness, log relative to wild type (ln ratio); higher = more splicing; Tetrahymena group I intron in knt gene, E. coli kanamycin selection, DiMSum; sequences stand for … in CUCUCU…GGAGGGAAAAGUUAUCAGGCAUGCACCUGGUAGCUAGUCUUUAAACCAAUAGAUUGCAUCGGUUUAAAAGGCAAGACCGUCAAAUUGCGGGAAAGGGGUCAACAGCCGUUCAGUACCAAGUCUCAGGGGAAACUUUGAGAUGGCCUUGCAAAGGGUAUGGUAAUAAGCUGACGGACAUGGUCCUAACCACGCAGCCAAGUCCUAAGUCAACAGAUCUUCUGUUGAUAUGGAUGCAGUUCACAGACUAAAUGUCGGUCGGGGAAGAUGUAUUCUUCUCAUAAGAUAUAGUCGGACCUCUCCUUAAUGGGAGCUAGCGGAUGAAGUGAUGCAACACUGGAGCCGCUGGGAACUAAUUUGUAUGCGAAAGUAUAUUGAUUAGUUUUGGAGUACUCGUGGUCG; conditions: 30 °C
Numbers only.

Some solved entries appear below for comparison.
AGUGAGCAAUAUUACGUUUC	-3.41
AGGUAGCAAUAUUACGACCU	-3.04
UAAAAGCAAUAUUACGACGG	0.0981
CAAAAGCAAUAUUACGAGAU	-3.7
CUUAAGCAAUAUUACGGAAA	-3.23

Batch: self-splicing fitness (ln) for all items listed.
1. AAGUAGCAAUAUUACGAGCU
2. GGUGAGCAAUAUUACGGUGG

1: -0.679; 2: -3.06

Batch: self-splicing fitness (ln) for all items listed.
1. UUCGAGCAAUAUUACGGGUG
2. CAGUAGCAAUAUUACGCCCA
3. UUCGAGCAAUAUUACGUGGC
4. UAAAAGCAAUAUUACGAAUU
5. CACAAGCAAUAUUACGCAAG
6. AUCUAGCAAUAUUACGCUCC
7. UAUGAGCAAUAUUACGCGCC
8. UUUCAGCAAUAUUACGAUGU

[-1.78, -2.16, -1.49, -3.12, -1.54, -0.7, -4.05, -2.13]

Recorded self-splicing fitness (ln) of CUGAAGCAAUAUUACGUGGU , please.
-3.3
